Dear all, this message contains pIC50 results, target or system Cholecystokinin receptor type A (Rattus norvegicus).
Notebook: values listed as pIC50 are -log10 of the concentration (mol/L).

- smiles_repr: "O=C1c2ccccc2C(=O)N1Cc1c(O)ccc2c(/C=C/c3ccccc3)cc3nc4ccccc4n3c12"
  numeric_value: 6.03

Below: the item to evaluate.
// query Supply reported pIC50 belonging to this compound: O=C1c2ccccc2C(=O)N1Cc1c(O)ccc2c(/C=C/c3ccc(-c4ccccc4)cc3)cc3nc4ccccc4n3c12
// result 6.71

Where these numbers come from: ChEMBL document CHEMBL1147911
